# SUBJECT_OF_TEST: Isocitrate lyase (Mycobacterium tuberculosis, UniProt P9WKK7)
# Sequence (P9WKK7 whole entry): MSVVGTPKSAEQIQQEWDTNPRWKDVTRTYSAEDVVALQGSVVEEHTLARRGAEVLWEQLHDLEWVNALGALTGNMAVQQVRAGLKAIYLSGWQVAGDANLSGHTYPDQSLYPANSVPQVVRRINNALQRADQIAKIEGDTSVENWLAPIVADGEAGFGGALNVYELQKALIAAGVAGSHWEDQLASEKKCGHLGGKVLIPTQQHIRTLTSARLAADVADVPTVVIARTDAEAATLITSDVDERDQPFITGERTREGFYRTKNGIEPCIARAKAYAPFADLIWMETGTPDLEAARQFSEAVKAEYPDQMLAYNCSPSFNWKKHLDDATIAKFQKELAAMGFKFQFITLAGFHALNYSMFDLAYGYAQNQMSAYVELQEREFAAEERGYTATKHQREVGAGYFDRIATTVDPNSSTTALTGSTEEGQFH
# METHOD_NOTES: Inhibition of Mycobacterium tuberculosis recombinant isocitrate lyase expressed in Escherichia coli BL21 (DE3) using isocitrate as substrate after 10 mins by spectrometric analysis
pIC50: −log10 of the molar value.
OBSERVATION_TYPE: pIC50

[[record]]
test_smiles = "O=C(O)CC[N+](=O)[O-]"
observed = 4.29


----------
# SUBJECT_OF_TEST: Isocitrate lyase (Mycobacterium tuberculosis)
# METHOD_NOTES: Inhibition of Mycobacterium tuberculosis recombinant isocitrate lyase expressed in Escherichia coli BL21 (DE3) using isocitrate as substrate at 1 mg/mL by spectrometric analysis relative to control
OBSERVATION_TYPE: inhibition

[[record]]
substance = "H-NSSSLAQ-OH"
observation_type = "inhibition"
observed = "62%"

[[record]]
substance = "H-TELSLPS-OH"
observation_type = "inhibition"
observed = "61%"

[[record]]
substance = "H-QKASPGA-OH"
observation_type = "inhibition"
observed = "73%"

[[record]]
substance = "H-TMHLSPY-OH"
observation_type = "inhibition"
observed = "63%"

[[record]]
substance = "H-VTSLKAT-OH"
observation_type = "inhibition"
observed = "51%"

[[record]]
substance = "H-LTLGPLL-OH"
observation_type = "inhibition"
observed = "55%"

[[record]]
substance = "H-HYSSHMR-OH"
observation_type = "inhibition"
observed = "72%"

[[record]]
substance = "H-HISHLML-OH"
observation_type = "inhibition"
observed = "51%"

[[record]]
substance = "H-SARVTSR-OH"
observation_type = "inhibition"
observed = "65%"

[[record]]
substance = "H-LTQHLTA-OH"
observation_type = "inhibition"
observed = "56%"

[[record]]
substance = "H-NPPERSP-OH"
observation_type = "inhibition"
observed = "73%"

[[record]]
substance = "H-LYALATM-OH"
observation_type = "inhibition"
observed = "52%"


----------
# SUBJECT_OF_TEST: Isocitrate lyase (Mycobacterium tuberculosis, UniProt P9WKK7)
# METHOD_NOTES: Inhibition of Mycobacterium tuberculosis recombinant isocitrate lyase expressed in Escherichia coli BL21 (DE3) using isocitrate as substrate after 10 mins by spectrometric analysis
pIC50: −log10 of the molar value.
OBSERVATION_TYPE: pIC50

[[record]]
substance = "H-VTSLKAT-OH"
observation_type = "pIC50"
observed = 3.64

[[record]]
substance = "H-QKASPGA-OH"
observation_type = "pIC50"
observed = 3.76

[[record]]
substance = "H-HYSSHMR-OH"
observation_type = "pIC50"
observed = 3.90

[[record]]
substance = "H-NPPERSP-OH"
observation_type = "pIC50"
observed = 3.85

[[record]]
substance = "H-LYALATM-OH"
observation_type = "pIC50"
observed = 3.69

[[record]]
substance = "H-HISHLML-OH"
observation_type = "pIC50"
observed = 3.72

[[record]]
substance = "H-LTQHLTA-OH"
observation_type = "pIC50"
observed = 3.67

[[record]]
substance = "H-TMHLSPY-OH"
observation_type = "pIC50"
observed = 3.81

[[record]]
substance = "H-SARVTSR-OH"
observation_type = "pIC50"
observed = 3.78

[[record]]
substance = "H-TELSLPS-OH"
observation_type = "pIC50"
observed = 3.74

[[record]]
substance = "H-LTLGPLL-OH"
observation_type = "pIC50"
observed = 3.68

[[record]]
substance = "H-NSSSLAQ-OH"
observation_type = "pIC50"
observed = 3.72

